# System: Omicron BA.4/BA.5 spike-pseudotyped virus
# TEST METHOD NOTES: microbe, parasite or virus in culture
# Type: cell-based
# SETUP CONDITIONS: Severe acute respiratory syndrome coronavirus 2; 293T-ACE2 cells
ATTRIBUTE MEASURED: IC50 (nM)
Write the answer as a number in nM, unit excluded.

IC50 lookup needed for C1=C2CCCN(CCCCNCc3ccccc3)C2C2CC1C1CCCCN1C2 (stereo not shown) , thanks.
860

====

# Test system: Omicron BA.2 spike-pseudotyped virus
# TEST METHOD NOTES: microbe, parasite or virus in culture
# Format: cell-based
# SETUP CONDITIONS: Severe acute respiratory syndrome coronavirus 2; 293T-ACE2 cells
ATTRIBUTE MEASURED: IC50

IC50 lookup needed for C1=C2CCCN(CCCCNCc3ccccc3)C2C2CC1C1CCCCN1C2 (stereo not shown) , thanks.
830 nM

====

Each entry below lists one item and its recorded CC50 value.
# TEST METHOD NOTES: in vitro
# Assay type: cell-based
# SETUP CONDITIONS: human; concentration that reduced viability of 293T-ACE2 cells by 50%; 3 days
# Experimental: The CellTiter-Glo® Luminescent Cell Viability Assay (Promega, Cat. # G7570 ) was used to determine the cytotoxicity of the aloperine derivatives. 293T-ACE2 cells were cultured in the presence of various concentrations of the compounds for 3 days. The cytotoxicity of the compounds was determined by following the protocol provided by the manufacturer. The 50% cytotoxic concentration (CC50) was defined as the concentration that caused a 50% reduction in cell viability.

Look over these answered cases.
COMPOUND: Fc1ccc(CNCCCCN2CCCC3=CC4CC(CN5CCCCC45)C32)cc1 (stereo not shown) [Compound 9]
CC50: > 10 µM
//
COMPOUND: C1=C2CCCN(CCCCCNCc3ccccc3)C2C2CC1C1CCCCN1C2 (stereo not shown) [Compound 4]
CC50: > 20 µM
//
COMPOUND: O=C(NCCCCCCN1CCCC2CC3CC(CN4CCCCC34)C21)c1c(F)cc(Br)cc1F (stereo not shown) [Compound 1]
CC50: > 20 µM

Consider now this further compound.
CC50 lookup needed for CC(C)(C)c1ccc(C(=O)NCCCCCCN2CCCC3=CC4CC(CN5CCCCC45)C32)cc1 (stereo not shown) [Compound 7] , thanks.
> 20 µM
